Target: T1, gp41-5 (HIV)
T1 construct: also called gp41-5 protein construct; five-helix bundle protein
Assay: competition FP; displacement of Flu-C38 from gp41-5
Where no end group is shown, it is not given here. [ ]: non-standard residue; d: D form. APC = trans-3-aminopyrrolidine-4-carboxylic acid; ACPC = trans-2-aminocyclopentanecarboxylic acid; β3hR = N=C(N)NCCC[C@H](N)CC(=O)O; β3hT = C[C@@H](O)[C@H](N)CC(=O)O; β3hE = N[C@@H](CCC(=O)O)CC(=O)O; β3hA = C[C@H](N)CC(=O)O
Overview of recorded pKi for various binders
Value format note: pKi is -log10 of concentration (mol/L); just state the number.

{"binder": "Ac-[β3hT]TWE[ACPC]WD[β3hR]AIA[β3hE]YA[ACPC]RIE[ACPC]LI[β3hR]AAQ[β3hE]QQ[β3hE]KNE[ACPC]AL[β3hR]EL (not fully specified, to be checked against the listing) [α/β-peptide 9]", "pKi": 7.08}
{"binder": "Ac-[β3hT]TWE[β3hA]WD[β3hR]AIA[β3hE]YA[β3hA]RIE[β3hA]LI[β3hR]AAQ[β3hE]QQ[β3hE]KNE[β3hA]AL[β3hR]EL (also called oligomer 4) [α/β-peptide 4]", "pKi": 5.42}
{"binder": "Ac-TTWEAWDRAIAEYAARIEALIRAAQEQQEKNEAALREL (also called T-2635; CHR α-peptide 3) [α-peptide 3]", "pKi": 9.70}
{"binder": "Ac-[β3hT]TWE[ACPC]WD[APC]AIA[β3hE]YA[ACPC]RIE[ACPC]LI[APC]AAQ[β3hE]QQ[β3hE]KNE[ACPC]AL[APC]EL-NH2 (Made from 9 by replacing the three β3-hArg residues with APC; also called foldamer 10) [α/β-peptide 10]", "pKi": 8.05}
{"binder": "Ac-TTWEAWDRAIAEYAARIEALI[β3hR]AAQ[β3hE]QQ[β3hE]KNE[β3hA]AL[β3hR]EL (Chimera of α-peptide 3 and α/β-peptide 4; also called oligomer 5) [(α+α/β)-peptide 5]", "pKi": 9.70}
{"binder": "Ac-TTWEAWDRAIAEYA[ACPC]RIE[ACPC]LI[β3hR]AAQ[β3hE]QQ[β3hE]KNE[ACPC]AL[β3hR]EL (also: other residues as in 6, also called oligomer 7) [α/β-peptide 7]", "pKi": 9.40}

// pKi lookup, key: Ac-TTWEAWDRAIAEYA[β3hA]RIE[β3hA]LI[β3hR]AAQ[β3hE]QQ[β3hE]KNE[β3hA]AL[β3hR]EL (also called (α+α/β)-peptide 6; oligomer 6) [α/β-peptide 6] 7.82
